B1: glmS ribozyme (parent)
chain: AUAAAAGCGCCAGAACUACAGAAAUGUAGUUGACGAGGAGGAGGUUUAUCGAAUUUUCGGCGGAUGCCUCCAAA

Variants of: B1
Assay: self-cleavage kobs at 10000 uM GlcN6P; higher = faster cleavage; RNA array
Conditions: with glucosamine-6-phosphate
This sample holds only a part of the variants without activity.
Quick rule: self-cleavage kobs at 10000 uM GlcN6P of at least 0.0001 s⁻¹ means true (1), below that means false (0).

Look over these answered cases.
Threshold query (self-cleavage kobs at 10000 uM GlcN6P >= 0.0001 s⁻¹) on A15G A33C U46G
false (0)

Does self-cleavage kobs at 10000 uM GlcN6P meet or surpass 0.0001 s⁻¹ for U30C G37C G38C ?
false (0)

Item A33U A36G G41C A53G with self-cleavage kobs at 10000 uM GlcN6P of 0.0001 s⁻¹ or above?
false (0)

Record G13C G60A U65G G66C C71U ; criterion: self-cleavage kobs at 10000 uM GlcN6P no lower than 0.0001 s⁻¹. Met?
false (0)

For this variant, is measured self-cleavage kobs at 10000 uM GlcN6P 0.0001 s⁻¹ or higher? U54G U56A G66A
true (1)

Evaluate G59A C67U : self-cleavage kobs at 10000 uM GlcN6P at minimum 0.0001 s⁻¹?
false (0)

New cases:
hey, is self-cleavage kobs at 10000 uM GlcN6P for this one >= 0.0001 s⁻¹? A39G U65G C67G
true (1)

Threshold query (self-cleavage kobs at 10000 uM GlcN6P >= 0.0001 s⁻¹) on C8A G37U C70A
true (1)

Values compiled from the supplement of paper PMC7125110.
